Each recorded value in this set is attributed to patent US20210324061A1.

Molecular target: T1, human GARP-TGF-β1 complex (recombinant complex of human GARP and latent human TGF-β1) (human, UniProt Q14392 20-627; P01137 30-278; P01137 279-390)
T1 construct: also called huGARP-TGF-β1; hGARP-TGF-β1
T1 sequence (Q14392 20-627 limits assumed, chain 1 of 3): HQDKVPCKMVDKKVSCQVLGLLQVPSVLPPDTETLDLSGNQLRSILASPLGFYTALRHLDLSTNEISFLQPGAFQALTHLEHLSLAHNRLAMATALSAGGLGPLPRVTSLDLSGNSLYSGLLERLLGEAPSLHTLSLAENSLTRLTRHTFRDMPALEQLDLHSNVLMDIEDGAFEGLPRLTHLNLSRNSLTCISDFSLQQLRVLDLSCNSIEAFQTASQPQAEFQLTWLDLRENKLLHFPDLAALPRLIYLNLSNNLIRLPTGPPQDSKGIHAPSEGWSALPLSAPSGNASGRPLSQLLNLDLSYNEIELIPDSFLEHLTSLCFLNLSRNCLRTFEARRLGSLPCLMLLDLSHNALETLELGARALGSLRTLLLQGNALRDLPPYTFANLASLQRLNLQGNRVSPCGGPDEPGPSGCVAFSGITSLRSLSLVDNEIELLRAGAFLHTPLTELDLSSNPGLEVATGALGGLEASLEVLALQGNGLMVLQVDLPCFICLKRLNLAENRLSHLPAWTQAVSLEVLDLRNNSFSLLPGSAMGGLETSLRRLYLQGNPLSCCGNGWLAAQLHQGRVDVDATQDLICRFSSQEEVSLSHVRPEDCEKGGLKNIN
T1 sequence (P01137 30-278 limits assumed, chain 2 of 3): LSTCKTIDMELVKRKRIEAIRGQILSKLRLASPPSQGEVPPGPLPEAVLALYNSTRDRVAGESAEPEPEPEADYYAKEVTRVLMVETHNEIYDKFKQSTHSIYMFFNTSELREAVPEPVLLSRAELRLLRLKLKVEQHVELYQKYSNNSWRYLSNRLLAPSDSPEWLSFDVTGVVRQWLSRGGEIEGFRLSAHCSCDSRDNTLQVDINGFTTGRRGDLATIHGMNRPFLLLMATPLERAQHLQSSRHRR
T1 sequence (P01137 279-390 limits assumed, chain 3 of 3): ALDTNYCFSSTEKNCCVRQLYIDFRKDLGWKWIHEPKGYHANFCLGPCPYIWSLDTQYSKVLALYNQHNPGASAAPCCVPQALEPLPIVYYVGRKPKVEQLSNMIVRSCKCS
Experiment: SPR Biacore T200, CM5 chip coated with GARP-TGF-β1 complex at 150 RU
This listing pairs binders with measured Fold-difference (KD vs 39B6-A).

{"binder": "39B6-ANK IgG4 S228P (antibody, V domains shown, Variant of 39B6-A in IgG4 S228P format; Positions are Kabat-type) VH: QVQLVQPGAEVRKPGASVKVSCKASGYRFTSYYIDWVRQAPGQGLEWMGRIDPEDAGTKYAQKFQGRVTMTADTSTSTVYVELSSLRSEDTAVYYCARNKWETVVVGDLMYEYEYWGQGTLVTVSS VL: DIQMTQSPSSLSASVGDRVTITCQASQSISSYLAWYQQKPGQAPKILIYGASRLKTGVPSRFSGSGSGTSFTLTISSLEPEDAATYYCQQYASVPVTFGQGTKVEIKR", "unitsLabel": "fold", "Fold-difference (KD vs 39B6-A)": 0.9}
{"binder": "39B6-ANR IgG4 S228P (antibody, V domains shown, Variant of 39B6-A in IgG4 S228P format; Positions are Kabat-type) VH: QVQLVQPGAEVRKPGASVKVSCKASGYRFTSYYIDWVRQAPGQGLEWMGRIDPEDAGTKYAQKFQGRVTMTADTSTSTVYVELSSLRSEDTAVYYCARNRWETVVVGDLMYEYEYWGQGTLVTVSS VL: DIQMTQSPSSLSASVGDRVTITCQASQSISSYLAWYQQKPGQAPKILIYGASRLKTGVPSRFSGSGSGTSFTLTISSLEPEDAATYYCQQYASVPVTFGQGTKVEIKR", "unitsLabel": "fold", "Fold-difference (KD vs 39B6-A)": 0.9}
{"binder": "39B6-AYE (ARGX-115), IgG4 S228P (antibody, V domains shown) VH: QVQLVQPGAEVRKPGASVKVSCKASGYRFTSYYIDWVRQAPGQGLEWMGRIDPEDAGTKYAQKFQGRVTMTADTSTSTVYVELSSLRSEDTAVYYCARYEWETVVVGDLMYEYEYWGQGTLVTVSS VL: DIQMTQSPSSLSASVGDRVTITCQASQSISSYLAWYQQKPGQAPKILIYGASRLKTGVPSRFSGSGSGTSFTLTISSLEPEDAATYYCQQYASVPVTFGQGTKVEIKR", "unitsLabel": "fold", "Fold-difference (KD vs 39B6-A)": 0.8}
